The measurements presented in this section are drawn from patent US11541041B1.

target: KRas G12D mutant protein (Homo sapiens (Human), UniProt P01116, G12D); assay: Ras GTP binding domain inhibition assay; settings: 20 μM compound; read-out: % Inhibition at 20 μM, KRas G12D
Sequence (P01116-2 other isoform, or with tags, fused parts or gaps G12D): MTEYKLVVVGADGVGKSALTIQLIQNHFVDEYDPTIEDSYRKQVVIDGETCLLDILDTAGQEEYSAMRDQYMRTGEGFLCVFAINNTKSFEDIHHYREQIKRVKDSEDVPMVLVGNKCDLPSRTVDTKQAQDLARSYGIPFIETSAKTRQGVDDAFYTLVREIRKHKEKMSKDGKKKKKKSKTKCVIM
measurement kind: inhibition at 20 µM

Answered examples (4):
>>> test_value("Cc1ccc(-c2csc3c(O)nc(-c4nccn4C)nc23)c(F)c1")
"25 to 50%"
>>> test_value("O=C(CCCc1cccnc1)N1CCCc2c(O)nc(C3C=CC=CN3)nc21 (centres unmarked)")
"51 to 75%"
>>> test_value("Nc1nc(-c2ccccn2)nc2c(C3CC3)csc12")
"51 to 75%"
>>> test_value("Cc1cccc(-c2c(C)sc3c(O)nc(-c4nccn4C)nc23)c1")
"1 to 25%"

Now for a further compound.
(Q) Answer with the recorded inhibition at 20 µM of COCCOc1nc(-c2ccncn2)nc2sc(-c3ccccc3)c(-c3ccccc3)c12 only.
(A) 0%

---

biological target: Rac-1 (Homo sapiens (Human), UniProt P63000); experiment: Rac and Rho inhibition assay; format: binding; conditions: read-out: Rac-1 % Inh.
measurement kind: inhibition at 20 µM

>>> test_value("CC(O)ONc1nc(-c2nccn2C)nc2sc(-c3ccccc3)c(-c3ccccc3)c12 (centres unmarked)")
"25 to 50%"
>>> test_value("COc1ccc(CCNC(=O)c2csc3nc(-c4ccccn4)nc(N4CCSCC4)c23)cn1 [drawing 3751]")
"25 to 50%"
>>> test_value("CN(C)CCOc1cccc(-c2csc3c(O)nc(-c4ccccn4)nc23)c1")
"76 to 100%"
>>> test_value("COc1cnc(CNC(=O)c2c(C)sc3c(O)nc(-c4ccccn4)nc23)[nH]c1=O")
"1 to 25%"
>>> test_value("O=C(NCCc1cnc(O)nc1)c1csc2nc(-c3ccccn3)nc(N3CCSCC3)c12 [drawing 3752]")
"51 to 75%"

Your task in this section: give inhibition at 20 µM for each listed record.
1. COc1ccc(N2CCN(C(=O)c3csc4c(O)cc(-c5ccccn5)cc34)CC2)cc1O
2. Oc1nc(-c2ccccn2)nc2c(-c3cncc(C(F)(F)F)c3)csc12
3. COCCCCNC(=O)c1csc2nc(-c3ccccn3)nc(O)c12

(A)
["76 to 100%", "1 to 25%", "1 to 25%"]
